Listed compounds paired with reported pKa
# Assay text: apparent or measured pKa of ionizable lipid in the lipid nanoparticle, TNS assay
# Format: physicochemical
# Measurement context: read-out: measured pKa (in tLNP formulation)
Returns: the value as a bare number; no unit string appended.

Prompt: Report pKa, nothing else, for this compound: CCCCCCCCC(=O)OCC(COC(=O)CCCCCCCC)CC(=O)OC[C@@H]1C[C@H](OC(=O)CC(COC(=O)CCCCCCCC)COC(=O)CCCCCCCC)CN1C(=O)N1CCN(C)CC1 [CICL-239]
Completion: 6.25

Prompt: Give reported pKa value for CCCCCCCCC(=O)OCC(COC(=O)CCCCCCCC)CC(=O)O[C@H]1C=C[C@H](OC(=O)CC(COC(=O)CCCCCCCC)COC(=O)CCCCCCCC)CN(C(=O)OCCN(C)C)C1 (racemic) [CICL-218]
Completion: 6.11

Prompt: Identify the reported pKa for the following entry. CCCCCCCCC(=O)OCC(COC(=O)CCCCCCCC)CC(=O)O[C@@H]1C[C@H](OC(=O)CC(COC(=O)CCCCCCCC)COC(=O)CCCCCCCC)CN(C(=O)OCCN(C)C)C1 [CICL-238]
Completion: 7.09
